# Test system: PPARG (murine PPARg2 or full-length human PPARG, 3xPPRE-luciferase reporter)
# Measurement Description: Cell-based PPRE-luciferase transactivation assay in COS-1 cells
# Run Conditions: PPRE-luciferase, COS-1 cells; NA = not active; read-out: EC50 (nM) PPRE
Please assign No whenever EC50 is at or above 30 nM, and Yes whenever it is below.

Below are worked cases with known answers.
Cc1c(C)n(Cc2ccc(-c3ccccc3C(=O)O)cc2)c2ccc(C(=O)NC3CCCC3)cc12 :: No
Cc1c(C)n(Cc2ccc(-c3ccccc3C(=O)O)cc2)c2ccc(C(=O)N[C@@H](C)c3ccc(Cl)cc3)cc12 :: No
Cc1c(C)n(Cc2ccc(-c3ccccc3C(=O)O)cc2)c2ccc(C(=O)NCc3ccc(OC(F)(F)F)cc3)cc12 :: No
Cc1c(C)n(Cc2ccc(-c3ccccc3C(=O)O)cc2)c2ccc(C(=O)NC(C)CCc3ccccc3)cc12 (stereo not drawn) :: Yes

*Q* Does `Cc1c(C)n(Cc2ccc(-c3ccccc3C(=O)O)cc2)c2ccc(C(=O)NCc3ccc(N(C)C)cc3)cc12` have EC50 strictly under 30 nM?
*A* No

*Q* Quick one: `Cc1c(C)n(Cc2ccc(-c3ccccc3-c3nnn[nH]3)cc2)c2ccc(C(=O)N[C@@H](C)c3ccc(Br)cc3)cc12`
*A* No
